Catalogue of pIC50 readings, one per entry.
- testedSystem: Zap-70 (Homo sapiens, UniProt P43403)
- Construct: Kinases are expressed as either kinase domains or full length constructs; made in house
- Sequence (P43403 whole entry, species assumed, the tested form may be a part): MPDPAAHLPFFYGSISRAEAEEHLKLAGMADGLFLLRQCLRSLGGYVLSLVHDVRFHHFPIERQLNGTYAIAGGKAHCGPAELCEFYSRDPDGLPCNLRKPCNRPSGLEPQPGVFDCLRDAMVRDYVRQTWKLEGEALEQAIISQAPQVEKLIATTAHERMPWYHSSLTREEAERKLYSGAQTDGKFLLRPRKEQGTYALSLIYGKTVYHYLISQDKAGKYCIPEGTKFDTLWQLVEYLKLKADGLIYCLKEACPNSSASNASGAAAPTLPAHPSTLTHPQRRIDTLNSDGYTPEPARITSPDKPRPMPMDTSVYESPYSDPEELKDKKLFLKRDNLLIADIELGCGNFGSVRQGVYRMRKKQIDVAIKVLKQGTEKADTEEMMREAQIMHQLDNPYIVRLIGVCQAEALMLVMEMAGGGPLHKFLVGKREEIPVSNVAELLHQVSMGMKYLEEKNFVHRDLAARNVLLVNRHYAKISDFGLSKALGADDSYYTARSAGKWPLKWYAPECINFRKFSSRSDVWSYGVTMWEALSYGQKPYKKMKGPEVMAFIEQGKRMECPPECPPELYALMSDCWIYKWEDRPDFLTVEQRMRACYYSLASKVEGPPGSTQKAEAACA
- testDescription: Kinase inhibition assay (33P transfer), Zap-70
- Type: biochemical
- statedConditions: Table 3, class symbols; read-out: Zap-1
pIC50: −log10 of the molar value.

>>> result("COC(=O)c1ccc(-c2cc(Nc3ncnc(NCCc4c[nH]c5ccccc45)n3)[nH]n2)cc1 [Compound 806]")
"< 5.00"
>>> result("COc1ccc(Nc2ncnc(N(C)C3CCN(C)CC3)n2)cc1OC [Compound 861]")
"< 4.90"
>>> result("Cc1cccc(Nc2ncnc(N(C)c3ccc4c(cnn4Cc4ccccc4)c3)n2)c1 [Compound 668]")
"< 4.97"
>>> result("COc1cc(Nc2ncnc(-c3cccnc3Nc3cccc(C(C)=O)c3)n2)cc(OC)c1OC [Compound 831]")
"< 5.02"

// moving on: another record for pIC50
// query Would you mind telling me what pIC50 value was observed for COc1cc(Nc2ncnc(-c3cccnc3NCC(C)c3ccccc3)n2)cc(OC)c1OC (centres unmarked) [Compound 890] ?
// result < 5.02
